Values compiled from ChEMBL document CHEMBL1132460.

experiment: Affinity ratio of IC50 of MMP-3 to IC50 of MMP-8
METRIC: log10(IC50 MMP-3/IC50 MMP-8)
Enter the number alone.

Solved cases below.
CCOC(=O)Nc1ccc(S(=O)(=O)N2Cc3ccccc3CC2C(=O)NO)cc1 (stereo unspecified) ... 1.22
CN(C)c1ccc(-c2ccc(S(=O)(=O)N3Cc4ccccc4CC3C(=O)NO)cc2)cc1 (stereo unspecified) ... 1
COc1ccc(S(=O)(=O)N2Cc3cc(O)ccc3CC2C(=O)NO)cc1 (stereo unspecified) ... 1
O=C(NO)C1Cc2ccccc2CN1S(=O)(=O)c1ccc(-c2ccccc2)cc1 (stereo unspecified) ... 1
COc1ccc(S(=O)(=O)N2Cc3cc(NC(=O)OC(C)(C)C)ccc3CC2C(=O)NO)cc1 (stereo unspecified) ... 0.82

Query: Please give the measured log10(IC50 MMP-3/IC50 MMP-8) for this compound: `COc1ccc(S(=O)(=O)N2Cc3[nH]c4ccccc4c3C[C@@H]2C(=O)NO)cc1`
Reply: 0.82
